assay: MTT assay, cytotoxicity in human keratinocyte cell line; assay type: cell-based; conditions: human, Cell viability
Parameter viability at 24 h, 10 µM: see the listing below.
measure.name: viability at 24 h, 10 µM (%)

> print(dat)
                                   compound              measure.name  measurement.unit  meas.value
1  CCCCCCCCCCCCCC[C@@H](O)[C@@H](O)[C@H](CO)NC(C)=O [NAPS, N-acetyl phytosphingosine]  viability at 24 h, 10 µM                 %          86
2  CCCCCCCCCCCCCC[C@@H](O)[C@@H](O)[C@@H](N)CO [PS, phytosphingosine]  viability at 24 h, 10 µM                 %          86
